The values you see were collected from PubChem BioAssay AID1918933.

# viability, T/C values compiled below
Test system: 186277-243-T-J2-PDC complex spheroid viability
experiment.description: Anticancer human tumor 186277-243-T-J2-PDC patient-derived colon adenocarcinoma cell line growth inhibition
condition.parameters: second compound 1 µM; first compound 0.0316 µM; active compounds read low
Text: Multicellular complex tumor spheroid response to LSD1 Inhibitor Iadademstat in combination with a variety of drugs and investigational agents in selected tumor cell lines The current study was undertaken to assess response to LSD1 inhibitors in combination with standard-of-care drugs and investigational agents in solid tumor complex spheroid models as well as in the K-562 leukemia. […] Compounds. […] If the clinical Cmax for an agent had not been determined, the highest concentration tested was 10 microM. […]

{"molecule": "CC1(C)CCC(CN2CCN(c3ccc(C(=O)NS(=O)(=O)c4ccc(NCC5CCOCC5)c([N+](=O)[O-])c4)c(Oc4cnc5[nH]ccc5c4)c3)CC2)=C(c2ccc(Cl)cc2)C1 + NC1CC1c1ccc(-c2cccc(O)c2)cc1", "viability, T/C (%)": 102}
{"molecule": "CC1COCCN1c1cc(C2(S(C)(=N)=O)CC2)nc(-c2ccnc3[nH]ccc23)n1 (stereo not given) + NC1CC1c1ccc(-c2cccc(O)c2)cc1", "viability, T/C (%)": 108}
{"molecule": "COc1ccc([C@@H](O)c2cc(-c3ncnc4cc(N5CCOCC5)ccc34)c(F)cc2Cl)nn1 + NC1CC1c1ccc(-c2cccc(O)c2)cc1", "viability, T/C (%)": 107}
{"molecule": "CC1COCCN1c1cc(-c2ccnn2C)c2ccnc(-c3ccn[nH]3)c2n1 (stereo not given) + NC1CC1c1ccc(-c2cccc(O)c2)cc1", "viability, T/C (%)": 10.2}
{"molecule": "O=C(C=Cn1cnc(-c2cc(C(F)(F)F)cc(C(F)(F)F)c2)n1)NNc1cnccn1 + NC1CC1c1ccc(-c2cccc(O)c2)cc1", "viability, T/C (%)": 93.1}

----------
# viability, T/C values compiled below
Test system: 186277-243-T-J2-PDC complex spheroid viability
experiment.description: Anticancer human tumor 186277-243-T-J2-PDC cell line growth inhibition;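 note: 7 day exposure to compounds; 100% = DMSO vehicle control viability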
condition.parameters: second compound 0.316 µM; first compound 0.000316 µM; active compounds read low

{"compound": "CC[C@@]1(O)C(=O)OCc2c1cc1n(c2=O)Cc2cc3c(CN(C)C)c(O)ccc3nc2-1 + NC1CCC(NC2CC2c2ccccc2)CC1", "viability, T/C / %": 111}
{"compound": "CC(C)CC(NC(=O)C(Cc1ccccc1)NC(=O)c1cnccn1)B(O)O (stereo not drawn) + NC1CCC(NC2CC2c2ccccc2)CC1", "viability, T/C / %": 113}
{"compound": "Cn1ncnc1C1c2n[nH]c(=O)c3cc(F)cc(c23)NC1c1ccc(F)cc1 (stereo not drawn) + NC1CCC(NC2CC2c2ccccc2)CC1", "viability, T/C / %": 113}
{"compound": "CC(C)CC(NC(=O)CNC(=O)c1cc(Cl)ccc1Cl)B1OC(=O)CC(CC(=O)O)(C(=O)O)O1 (stereo not drawn) + NC1CCC(NC2CC2c2ccccc2)CC1", "viability, T/C / %": 118}
{"compound": "CC[C@@]1(O)C(=O)OCc2c1cc1n(c2=O)Cc2cc3c(CN(C)C)c(O)ccc3nc2-1 + NC1CC1c1ccc(-c2cccc(O)c2)cc1", "viability, T/C / %": 101}
{"compound": "CC(C)CC(NC(=O)CNC(=O)c1cc(Cl)ccc1Cl)B1OC(=O)CC(CC(=O)O)(C(=O)O)O1 (stereo not drawn) + NC1CC1c1ccc(-c2cccc(O)c2)cc1", "viability, T/C / %": 110}
{"compound": "Cn1ncnc1C1c2n[nH]c(=O)c3cc(F)cc(c23)NC1c1ccc(F)cc1 (stereo not drawn) + NC1CC1c1ccc(-c2cccc(O)c2)cc1", "viability, T/C / %": 113}
{"compound": "CC(C)CC(NC(=O)C(Cc1ccccc1)NC(=O)c1cnccn1)B(O)O (stereo not drawn) + NC1CC1c1ccc(-c2cccc(O)c2)cc1", "viability, T/C / %": 94.1}

----------
System: 186277-243-T-J2-PDC complex spheroid viability
experiment.description: Anticancer human tumor 186277-243-T-J2-PDC cell line growth inhibition; active means viability on the fitted dose curve at most 10% of control; inactive means the rest;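 note: 7 day exposure to compounds; 100% = DMSO vehicle control viability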
condition.parameters: second compound 3.16 µM; first compound 0.1 µM
Possible outcomes: active, inactive

{"compound": "O=C(C=Cn1cnc(-c2cc(C(F)(F)F)cc(C(F)(F)F)c2)n1)NNc1cnccn1 + NC1CC1c1ccc(-c2cccc(O)c2)cc1", "answer.label": "inactive"}
{"compound": "Cn1ncnc1C1c2n[nH]c(=O)c3cc(F)cc(c23)NC1c1ccc(F)cc1 (configuration not stated) + NC1CC1c1ccc(-c2cccc(O)c2)cc1", "answer.label": "inactive"}
{"compound": "CC(C)CC(NC(=O)C(Cc1ccccc1)NC(=O)c1cnccn1)B(O)O (configuration not stated) + NC1CCC(NC2CC2c2ccccc2)CC1", "answer.label": "active"}
{"compound": "O=C(c1cc(Cc2n[nH]c(=O)c3ccccc23)ccc1F)N1CCN(C(=O)C2CC2)CC1 + NC1CC1c1ccc(-c2cccc(O)c2)cc1", "answer.label": "inactive"}
{"compound": "CC(C)c1c(-c2ccccc2)nc2c(C#N)c[nH]n2c1=O + NC1CC1c1ccc(-c2cccc(O)c2)cc1", "answer.label": "inactive"}
{"compound": "CC1COCCN1c1cc(-c2ccnn2C)c2ccnc(-c3ccn[nH]3)c2n1 (configuration not stated) + NC1CCC(NC2CC2c2ccccc2)CC1", "answer.label": "inactive"}
{"compound": "O=C(C=Cn1cnc(-c2cc(C(F)(F)F)cc(C(F)(F)F)c2)n1)NNc1cnccn1 + NC1CCC(NC2CC2c2ccccc2)CC1", "answer.label": "active"}

----------
Tested on: 186277-243-T-J2-PDC complex spheroid viability
experiment.description: Anticancer human tumor 186277-243-T-J2-PDC cell line growth inhibition; active = viability on the fitted dose curve at most 10% of control; inactive = the rest;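 note: 7 day exposure to compounds; 100% = DMSO vehicle control viability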
condition.parameters: second compound 1 µM; first compound 0.316 µM
Possible outcomes: label 1 for active, label 0 for inactive

{"molecule": "CC(C)c1c(-c2ccccc2)nc2c(C#N)c[nH]n2c1=O + NC1CCC(NC2CC2c2ccccc2)CC1", "answer.label": "label 0"}
{"molecule": "CC(C)c1c(-c2ccccc2)nc2c(C#N)c[nH]n2c1=O + NC1CC1c1ccc(-c2cccc(O)c2)cc1", "answer.label": "label 0"}
{"molecule": "CC1COCCN1c1cc(C2(S(C)(=N)=O)CC2)nc(-c2ccnc3[nH]ccc23)n1 (centres undefined) + NC1CCC(NC2CC2c2ccccc2)CC1", "answer.label": "label 0"}
{"molecule": "COc1cc(Nc2ncc3c(n2)-c2ccc(Cl)cc2C(c2c(F)cccc2OC)=NC3)ccc1C(=O)O + NC1CCC(NC2CC2c2ccccc2)CC1", "answer.label": "label 1"}
{"molecule": "CC1(C)CCC(CN2CCN(c3ccc(C(=O)NS(=O)(=O)c4ccc(NCC5CCOCC5)c([N+](=O)[O-])c4)c(Oc4cnc5[nH]ccc5c4)c3)CC2)=C(c2ccc(Cl)cc2)C1 + NC1CCC(NC2CC2c2ccccc2)CC1", "answer.label": "label 0"}
{"molecule": "O=C(c1cc(Cc2n[nH]c(=O)c3ccccc23)ccc1F)N1CCN(C(=O)C2CC2)CC1 + NC1CCC(NC2CC2c2ccccc2)CC1", "answer.label": "label 0"}
{"molecule": "COc1ccc([C@@H](O)c2cc(-c3ncnc4cc(N5CCOCC5)ccc34)c(F)cc2Cl)nn1 + NC1CC1c1ccc(-c2cccc(O)c2)cc1", "answer.label": "label 0"}
{"molecule": "COc1ccc([C@@H](O)c2cc(-c3ncnc4cc(N5CCOCC5)ccc34)c(F)cc2Cl)nn1 + NC1CCC(NC2CC2c2ccccc2)CC1", "answer.label": "label 0"}
{"molecule": "CC1COCCN1c1cc(-c2ccnn2C)c2ccnc(-c3ccn[nH]3)c2n1 (centres undefined) + NC1CC1c1ccc(-c2cccc(O)c2)cc1", "answer.label": "label 1"}
{"molecule": "CC1COCCN1c1cc(-c2ccnn2C)c2ccnc(-c3ccn[nH]3)c2n1 (centres undefined) + NC1CCC(NC2CC2c2ccccc2)CC1", "answer.label": "label 0"}
{"molecule": "O=C(c1cc(Cc2n[nH]c(=O)c3ccccc23)ccc1F)N1CCN(C(=O)C2CC2)CC1 + NC1CC1c1ccc(-c2cccc(O)c2)cc1", "answer.label": "label 0"}
{"molecule": "CC1COCCN1c1cc(C2(S(C)(=N)=O)CC2)nc(-c2ccnc3[nH]ccc23)n1 (centres undefined) + NC1CC1c1ccc(-c2cccc(O)c2)cc1", "answer.label": "label 0"}
{"molecule": "CC1(C)CCC(CN2CCN(c3ccc(C(=O)NS(=O)(=O)c4ccc(NCC5CCOCC5)c([N+](=O)[O-])c4)c(Oc4cnc5[nH]ccc5c4)c3)CC2)=C(c2ccc(Cl)cc2)C1 + NC1CC1c1ccc(-c2cccc(O)c2)cc1", "answer.label": "label 0"}
{"molecule": "Nc1ncn(C2CC(O)C(CO)O2)c(=O)n1 (centres undefined) + NC1CC1c1ccc(-c2cccc(O)c2)cc1", "answer.label": "label 0"}
